Recorded values, source paper PMC12333026.

# subject.of.test: TgCDPK1-G128M (Toxoplasma gondii, UniProt Q9BJF5, G128M)
# protocol.summary: CDPK enzyme activity assay, TgCDPK1 G128M

- compound: "O=C(c1nccs1)N1CC[C@@H](Nc2nccc(-n3cc(C4CC4)nc3-c3ccccc3)n2)C1 [(R)-RY-1-165]"
  IC50: "> 30 µM"
- compound: "O=C(c1nccs1)N1CC[C@@H](Nc2nccc(-n3cc(C4CC4)nc3-c3cccc(Cl)c3)n2)C1 [(R)-RY-1-185]"
  IC50: "> 30 µM"

====

Here, each record is paired with measured IC50 data.
# subject.of.test: TgCDPK1 WT (Toxoplasma gondii, UniProt Q9BJF5)
# Sequence (Q9BJF5 1-507): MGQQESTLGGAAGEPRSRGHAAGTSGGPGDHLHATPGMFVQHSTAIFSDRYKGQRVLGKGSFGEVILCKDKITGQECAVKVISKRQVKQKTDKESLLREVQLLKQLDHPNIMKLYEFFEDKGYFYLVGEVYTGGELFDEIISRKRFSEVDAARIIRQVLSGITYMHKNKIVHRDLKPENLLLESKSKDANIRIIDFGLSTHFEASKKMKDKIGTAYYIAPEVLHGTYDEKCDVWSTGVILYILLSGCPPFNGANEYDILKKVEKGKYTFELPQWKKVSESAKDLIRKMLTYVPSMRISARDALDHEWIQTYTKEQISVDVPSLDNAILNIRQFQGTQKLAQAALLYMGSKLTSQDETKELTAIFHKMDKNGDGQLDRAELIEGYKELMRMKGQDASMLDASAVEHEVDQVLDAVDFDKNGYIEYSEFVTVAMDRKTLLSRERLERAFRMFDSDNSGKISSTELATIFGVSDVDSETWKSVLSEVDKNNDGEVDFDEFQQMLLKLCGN
# protocol.summary: biochemical

- compound: "O=C(c1nccs1)N1CC[C@@H](Nc2nccc(-n3cc(C4CC4)nc3-c3ccccc3)n2)C1 [(R)-RY-1-165]"
  IC50, nM: 50
- compound: "O=C(c1nccs1)N1CC[C@@H](Nc2nccc(-n3cc(C4CC4)nc3-c3cccc(Cl)c3)n2)C1 [(R)-RY-1-185]"
  IC50, nM: 60

====

# subject.of.test: CpCDPK1 (Cryptosporidium parvum)
# Construct: made in house
# Sequence (A3FQ16 1-538): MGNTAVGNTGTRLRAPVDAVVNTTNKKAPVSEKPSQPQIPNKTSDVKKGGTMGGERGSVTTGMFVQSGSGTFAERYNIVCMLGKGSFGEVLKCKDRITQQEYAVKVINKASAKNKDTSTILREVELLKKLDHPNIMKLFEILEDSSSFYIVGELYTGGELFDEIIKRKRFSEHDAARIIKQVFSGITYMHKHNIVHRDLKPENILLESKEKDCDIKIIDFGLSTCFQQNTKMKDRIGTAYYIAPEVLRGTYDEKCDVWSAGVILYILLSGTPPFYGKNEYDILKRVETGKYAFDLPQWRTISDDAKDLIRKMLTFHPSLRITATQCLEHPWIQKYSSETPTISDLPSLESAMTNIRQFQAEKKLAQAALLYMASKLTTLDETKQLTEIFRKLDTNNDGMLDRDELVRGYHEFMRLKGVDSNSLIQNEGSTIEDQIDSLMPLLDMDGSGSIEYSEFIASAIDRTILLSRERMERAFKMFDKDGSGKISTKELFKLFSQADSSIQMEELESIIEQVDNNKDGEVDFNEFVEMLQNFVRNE
# protocol.summary: CDPK enzyme activity assay, CpCDPK1 WT
# Assay type: biochemical, C. parvum
# applied.conditions: Kinase-Glo assay; mean ± SD, n = 2–3 experiments; read-out: CpCDPK1 IC50 (±SD) WT
# Description: Recombinant expression of PfCDPK1, PfCDPK4, TgCDPK1 WT, TgCDPK1-G128M, CpCDPK1 and CpCDPK1-G152 M were purified as previously described. […] These reactions were performed in a buffer composed of 1 mM EGTA (pH 7.2), 10 mM MgCl2, 20 mM HEPES pH 7.5 (KOH), 0.1% BSA. […] KinaseGlo (Promega) luminescence-based assay in which luminescence is inversely related to kinase activity and […] was used as previously described.
pIC50: −log10 of the molar value.

- molecule: "O=C(c1nccs1)N1CC[C@@H](Nc2nccc(-n3cc(C4CC4)nc3-c3cccc(Cl)c3)n2)C1 [(R)-RY-1-185]"
  pIC50: 7.05

====

# subject.of.test: PfCDPK4 (Plasmodium falciparum, UniProt Q8IBS5)
# IC50 values compiled below
reported.property: IC50 (µM)

- compound: "O=C(c1nccs1)N1CC[C@@H](Nc2nccc(-n3cc(C4CC4)nc3-c3cccc(Cl)c3)n2)C1 [(R)-RY-1-185]"
  test.value: 2.21
- compound: "O=C(c1nccs1)N1CC[C@@H](Nc2nccc(-n3cc(C4CC4)nc3-c3ccccc3)n2)C1 [(R)-RY-1-165]"
  test.value: 1.7

====

# subject.of.test: PfCDPK1 (Plasmodium falciparum, UniProt P62344)
# Construct: made in house
# Sequence (P62344 whole entry): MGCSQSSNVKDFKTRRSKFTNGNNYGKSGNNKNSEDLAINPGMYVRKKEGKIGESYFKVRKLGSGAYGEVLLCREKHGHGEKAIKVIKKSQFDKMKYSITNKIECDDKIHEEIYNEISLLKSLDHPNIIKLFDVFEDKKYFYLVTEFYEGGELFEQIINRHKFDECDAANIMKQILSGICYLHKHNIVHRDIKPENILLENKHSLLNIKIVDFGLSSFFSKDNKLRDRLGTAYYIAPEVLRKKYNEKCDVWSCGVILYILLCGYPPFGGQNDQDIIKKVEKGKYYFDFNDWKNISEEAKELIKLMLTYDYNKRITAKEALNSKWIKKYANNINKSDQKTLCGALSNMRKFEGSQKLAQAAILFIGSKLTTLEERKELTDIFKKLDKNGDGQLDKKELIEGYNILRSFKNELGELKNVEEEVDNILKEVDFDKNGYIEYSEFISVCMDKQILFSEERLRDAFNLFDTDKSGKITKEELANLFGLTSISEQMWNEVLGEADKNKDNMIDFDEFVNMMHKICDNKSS
# protocol.summary: CDPK enzyme activity assay, PfCDPK1
# Format: biochemical, P. falciparum
pIC50: −log10 of the molar value.

- compound: "O=C(c1nccs1)N1CC[C@@H](Nc2nccc(-n3cc(C4CC4)nc3-c3ccccc3)n2)C1 [(R)-RY-1-165]"
  pIC50: 5.00

====

# subject.of.test: PfCDPK1 (Plasmodium falciparum)
# Construct: made in house
# protocol.summary: CDPK enzyme activity assay, PfCDPK1
# Type: biochemical, P. falciparum
# applied.conditions: recombinant enzyme; mean ± SD, n = 2–3 experiments; read-out: enzyme IC50 (±SD) PfCDPK1 WT
reported.property: IC50 (µM)

- compound: "O=C(c1nccs1)N1CC[C@@H](Nc2nccc(-n3cc(C4CC4)nc3-c3cccc(Cl)c3)n2)C1 [(R)-RY-1-185]"
  subject.of.test: "PfCDPK1 (Plasmodium falciparum)"
  display.unit: "µM"
  test.value: 6.69

====

Listing of entries alongside the reported IC50.
# subject.of.test: CpCDPK1-G152M (Cryptosporidium parvum, UniProt A3FQ16, G152M)
# Sequence (A3FQ16 whole entry G152M): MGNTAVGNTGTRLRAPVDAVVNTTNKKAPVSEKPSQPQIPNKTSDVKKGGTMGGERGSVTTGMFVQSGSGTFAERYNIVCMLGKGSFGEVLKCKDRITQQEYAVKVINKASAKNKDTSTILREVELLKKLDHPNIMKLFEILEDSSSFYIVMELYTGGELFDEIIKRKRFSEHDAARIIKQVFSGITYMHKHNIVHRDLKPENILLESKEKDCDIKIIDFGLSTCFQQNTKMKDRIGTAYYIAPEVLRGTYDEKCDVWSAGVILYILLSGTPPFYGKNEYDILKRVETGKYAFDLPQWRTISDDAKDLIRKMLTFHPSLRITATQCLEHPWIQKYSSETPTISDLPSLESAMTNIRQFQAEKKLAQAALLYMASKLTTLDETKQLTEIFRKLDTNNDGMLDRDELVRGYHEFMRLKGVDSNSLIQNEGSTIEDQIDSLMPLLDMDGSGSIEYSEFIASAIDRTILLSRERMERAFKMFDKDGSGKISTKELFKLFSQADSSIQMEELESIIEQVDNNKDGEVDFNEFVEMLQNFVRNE
# protocol.summary: CDPK enzyme activity assay, CpCDPK1 G152M

- molecule: "O=C(c1nccs1)N1CC[C@@H](Nc2nccc(-n3cc(C4CC4)nc3-c3ccccc3)n2)C1 [(R)-RY-1-165]"
  IC50: "> 30 µM"
- molecule: "O=C(c1nccs1)N1CC[C@@H](Nc2nccc(-n3cc(C4CC4)nc3-c3cccc(Cl)c3)n2)C1 [(R)-RY-1-185]"
  IC50: "> 30 µM"

====

# subject.of.test: CpCDPK1 (Cryptosporidium parvum)
# Construct: made in house
# protocol.summary: CDPK enzyme activity assay, CpCDPK1 WT
# Format: biochemical, C. parvum
pIC50: −log10 of the molar value.
reported.property: pIC50

- compound: "O=C(c1nccs1)N1CC[C@@H](Nc2nccc(-n3cc(C4CC4)nc3-c3ccccc3)n2)C1 [(R)-RY-1-165]"
  test.value: 6.77

====

# Tested on: P. falciparum T618Q asexual stage parasites
# protocol.summary: Growth inhibition assay, asexual stage parasites expressing PfPKG T618Q
# Assay type: cell-based
# applied.conditions: Plasmodium falciparum, 72 h, read-out: P. falciparum EC50 (±SD) T618Q
Listing: EC50 of selected compounds

- compound: "O=C(c1nccs1)N1CC[C@@H](Nc2nccc(-n3cc(C4CC4)nc3-c3cccc(Cl)c3)n2)C1 [(R)-RY-1-185]"
  subject.of.test: "P. falciparum T618Q asexual stage parasites"
  EC50, µM: 10.1
- compound: "O=C(c1nccs1)N1CC[C@@H](Nc2nccc(-n3cc(C4CC4)nc3-c3ccccc3)n2)C1 [(R)-RY-1-165]"
  subject.of.test: "P. falciparum T618Q asexual stage parasites"
  EC50, µM: 13.4

====

# subject.of.test: PfPKG (Plasmodium falciparum, UniProt Q8I719)
# Sequence (Q8I719 whole entry): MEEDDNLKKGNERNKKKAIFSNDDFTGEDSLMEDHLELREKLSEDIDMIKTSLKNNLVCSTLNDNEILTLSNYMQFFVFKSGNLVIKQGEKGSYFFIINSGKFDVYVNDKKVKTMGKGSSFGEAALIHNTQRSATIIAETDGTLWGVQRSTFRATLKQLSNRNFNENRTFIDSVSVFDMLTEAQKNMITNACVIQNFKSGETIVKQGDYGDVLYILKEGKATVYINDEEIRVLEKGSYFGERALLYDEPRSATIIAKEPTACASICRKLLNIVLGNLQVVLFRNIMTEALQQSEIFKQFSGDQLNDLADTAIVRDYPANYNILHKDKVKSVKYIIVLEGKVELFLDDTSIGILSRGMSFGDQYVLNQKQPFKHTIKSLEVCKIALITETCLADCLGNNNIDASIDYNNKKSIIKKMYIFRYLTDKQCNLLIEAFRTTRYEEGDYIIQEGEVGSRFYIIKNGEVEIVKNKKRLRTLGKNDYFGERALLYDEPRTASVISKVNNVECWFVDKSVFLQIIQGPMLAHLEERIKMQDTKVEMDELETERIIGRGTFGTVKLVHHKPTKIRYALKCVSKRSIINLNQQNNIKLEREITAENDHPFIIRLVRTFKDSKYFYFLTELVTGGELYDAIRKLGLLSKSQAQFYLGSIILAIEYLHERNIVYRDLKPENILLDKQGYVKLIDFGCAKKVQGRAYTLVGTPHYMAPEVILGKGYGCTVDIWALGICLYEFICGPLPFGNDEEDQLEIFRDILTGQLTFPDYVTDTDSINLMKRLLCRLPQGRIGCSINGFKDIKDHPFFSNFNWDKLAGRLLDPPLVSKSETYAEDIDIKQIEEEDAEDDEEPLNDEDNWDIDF
# protocol.summary: PfPKG enzyme activity assay, recombinant WT
# Format: biochemical
# applied.conditions: recombinant enzyme; ADP-Glo assay; mean ± SD, n = 2–3 experiments; read-out: enzyme IC50 (±SD) PfPKG WT

- compound: "O=C(c1nccs1)N1CC[C@@H](Nc2nccc(-n3cc(C4CC4)nc3-c3ccccc3)n2)C1 [(R)-RY-1-165]"
  display.unit: "µM"
  IC50: 0.24

====

# subject.of.test: PfPKG (Plasmodium falciparum, UniProt Q8I719)
# protocol.summary: PfPKG enzyme activity assay, recombinant WT
# Format: biochemical
# Description: Direct inhibition of recombinant PfPKG phosphorylation activity was carried out using a previously described nonradioactive assay. The assay evaluates PfPKG activity based on changes in initial ATP concentration via luminescence after enzyme phosphorylation of peptide substrate PKCtide ([…]) (SignalChem, Richmond, BC Canada). […]
pIC50: −log10 of the molar value.

- compound: "O=C(c1nccs1)N1CC[C@@H](Nc2nccc(-n3cc(C4CC4)nc3-c3cccc(Cl)c3)n2)C1 [(R)-RY-1-185]"
  pIC50: 6.72

====

# subject.of.test: PfPKG T618Q (Plasmodium falciparum, UniProt Q8I719, T618Q)
# Sequence (Q8I719 whole entry T618Q): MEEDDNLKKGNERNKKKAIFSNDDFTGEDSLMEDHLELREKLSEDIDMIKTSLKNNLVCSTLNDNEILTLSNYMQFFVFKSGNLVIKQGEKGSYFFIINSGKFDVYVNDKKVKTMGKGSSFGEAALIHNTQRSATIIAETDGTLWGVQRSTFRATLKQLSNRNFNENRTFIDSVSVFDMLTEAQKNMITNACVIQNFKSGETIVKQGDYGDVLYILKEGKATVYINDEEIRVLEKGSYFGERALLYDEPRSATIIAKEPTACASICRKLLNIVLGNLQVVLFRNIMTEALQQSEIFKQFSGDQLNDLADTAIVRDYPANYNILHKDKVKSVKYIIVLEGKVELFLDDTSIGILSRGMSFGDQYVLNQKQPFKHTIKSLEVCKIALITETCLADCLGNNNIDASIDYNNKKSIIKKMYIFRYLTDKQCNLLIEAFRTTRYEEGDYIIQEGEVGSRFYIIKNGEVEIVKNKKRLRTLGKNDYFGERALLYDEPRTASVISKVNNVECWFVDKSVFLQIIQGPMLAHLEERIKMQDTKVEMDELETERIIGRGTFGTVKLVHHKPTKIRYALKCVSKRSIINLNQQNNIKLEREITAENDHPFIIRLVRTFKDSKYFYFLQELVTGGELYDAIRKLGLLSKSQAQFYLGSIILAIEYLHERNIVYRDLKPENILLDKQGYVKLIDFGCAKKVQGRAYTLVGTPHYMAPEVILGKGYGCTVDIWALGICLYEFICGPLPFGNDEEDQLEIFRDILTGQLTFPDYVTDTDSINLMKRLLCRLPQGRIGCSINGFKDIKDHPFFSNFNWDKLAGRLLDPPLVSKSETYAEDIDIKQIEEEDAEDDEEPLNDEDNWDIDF
# protocol.summary: PfPKG enzyme activity assay, T618Q gatekeeper mutant
pIC50: −log10 of the molar value.
Reported pIC50 values follow for various molecules
reported.property: pIC50

- molecule: "O=C(c1nccs1)N1CC[C@@H](Nc2nccc(-n3cc(C4CC4)nc3-c3cccc(Cl)c3)n2)C1 [(R)-RY-1-185]"
  test.value: "< 5.00"
- molecule: "O=C(c1nccs1)N1CC[C@@H](Nc2nccc(-n3cc(C4CC4)nc3-c3ccccc3)n2)C1 [(R)-RY-1-165]"
  test.value: "< 5.00"
